Values from patent US20250127780A1

Measured log10(IC50), listed per entry.
# experimental system: UniProt:Q9H0K1
# Sequence (Q9H0K1 whole entry): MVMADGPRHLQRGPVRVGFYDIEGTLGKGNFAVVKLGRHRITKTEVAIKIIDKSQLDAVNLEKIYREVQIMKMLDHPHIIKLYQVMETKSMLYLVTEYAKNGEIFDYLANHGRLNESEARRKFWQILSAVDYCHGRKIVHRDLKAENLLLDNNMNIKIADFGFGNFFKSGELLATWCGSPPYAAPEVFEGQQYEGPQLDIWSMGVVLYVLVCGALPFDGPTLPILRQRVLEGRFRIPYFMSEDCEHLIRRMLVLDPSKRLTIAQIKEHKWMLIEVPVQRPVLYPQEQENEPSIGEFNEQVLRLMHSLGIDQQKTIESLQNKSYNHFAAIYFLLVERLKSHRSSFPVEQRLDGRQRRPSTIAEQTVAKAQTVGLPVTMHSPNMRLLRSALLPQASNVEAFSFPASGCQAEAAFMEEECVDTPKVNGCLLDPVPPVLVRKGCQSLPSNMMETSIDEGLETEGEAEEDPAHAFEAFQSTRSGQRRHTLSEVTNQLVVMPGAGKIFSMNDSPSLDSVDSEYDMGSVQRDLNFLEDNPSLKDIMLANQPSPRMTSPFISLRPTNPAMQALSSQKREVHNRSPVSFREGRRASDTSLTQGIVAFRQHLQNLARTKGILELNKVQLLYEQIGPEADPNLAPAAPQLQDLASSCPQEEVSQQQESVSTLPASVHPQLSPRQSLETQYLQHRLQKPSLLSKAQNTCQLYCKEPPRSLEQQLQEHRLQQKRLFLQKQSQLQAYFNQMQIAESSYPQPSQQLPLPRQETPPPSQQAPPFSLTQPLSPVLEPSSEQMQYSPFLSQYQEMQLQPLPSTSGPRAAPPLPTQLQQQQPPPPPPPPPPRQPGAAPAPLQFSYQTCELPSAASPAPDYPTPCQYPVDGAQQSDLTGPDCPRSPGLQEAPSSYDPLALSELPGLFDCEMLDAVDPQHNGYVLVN
Friendly reminder: values = log10 of IC50, unit nM.

Solved cases (4 shown):
Name the recorded log10(IC50) for Cc1ccc(Nc2cnc3c(-c4ccc(C(C)O)c(-n5nc(C#N)cc5C)c4)cnn3c2)nn1 (centres unmarked) .
0.00

Name the recorded log10(IC50) for Cc1ccc(Nc2cnc3c(-c4ccc(C(C)O)c(-n5nc(C(F)F)cc5C)c4)cnn3c2)nn1 (centres unmarked) .
1.72

Name the recorded log10(IC50) for `COc1nc2c(cc1Nc1nnc(C)cc1C(=O)N(C)C)ncn2-c1ccc(C#N)c(-n2nc(OC(F)F)cc2C)c1` .
0.85

Name the recorded log10(IC50) for Cc1cc(C(F)F)nn1-c1cc(-n2cnc3cc(Nc4cccnn4)cnc32)ccc1C(C)O (centres unmarked) .
2.32

Attention now turns to another entry.
Name the recorded log10(IC50) for Cc1ccc(Oc2cnc3c(-c4ccc(C(C)O)c(-n5nc(C#N)cc5C)c4)cnn3c2)nn1 (centres unmarked) .
2.03

----------
# experimental system: SIK1 (Homo sapiens (Human))
# Sequence (P57059 whole entry): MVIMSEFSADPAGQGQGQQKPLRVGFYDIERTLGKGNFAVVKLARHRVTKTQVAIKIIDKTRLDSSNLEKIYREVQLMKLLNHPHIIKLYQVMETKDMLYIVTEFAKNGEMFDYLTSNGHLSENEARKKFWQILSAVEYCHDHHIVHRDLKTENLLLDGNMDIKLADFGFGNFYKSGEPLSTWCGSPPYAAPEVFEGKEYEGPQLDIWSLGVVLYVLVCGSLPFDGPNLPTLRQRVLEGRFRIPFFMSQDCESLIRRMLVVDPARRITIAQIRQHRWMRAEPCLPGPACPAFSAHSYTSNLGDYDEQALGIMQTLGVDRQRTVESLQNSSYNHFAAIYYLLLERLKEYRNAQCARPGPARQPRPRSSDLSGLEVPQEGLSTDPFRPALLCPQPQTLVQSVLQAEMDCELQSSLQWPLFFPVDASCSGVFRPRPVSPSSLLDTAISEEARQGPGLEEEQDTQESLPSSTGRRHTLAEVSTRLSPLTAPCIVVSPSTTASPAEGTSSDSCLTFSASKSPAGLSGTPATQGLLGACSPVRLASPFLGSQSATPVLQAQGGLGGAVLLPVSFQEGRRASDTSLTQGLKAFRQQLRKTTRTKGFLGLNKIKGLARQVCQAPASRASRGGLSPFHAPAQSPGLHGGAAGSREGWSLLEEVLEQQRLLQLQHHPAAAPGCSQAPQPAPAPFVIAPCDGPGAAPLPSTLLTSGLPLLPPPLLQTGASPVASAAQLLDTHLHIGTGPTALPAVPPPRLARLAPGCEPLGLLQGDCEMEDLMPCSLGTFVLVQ
endpoint: IC50 (nM)
Output spec: scalar in nM, unitless text.

Recorded IC50 for Cc1ccc(Nc2cnc3c(-c4ccc(C(C)O)c(-n5nc(C#N)cc5C)c4)cnn3c2)nn1 (stereo not shown) with SIK1 (Homo sapiens (Human)), please?
616

----------
Entries below carry reported pIC50 on SIK3 (Homo sapiens (Human)).
Sequence (Q9Y2K2 whole entry): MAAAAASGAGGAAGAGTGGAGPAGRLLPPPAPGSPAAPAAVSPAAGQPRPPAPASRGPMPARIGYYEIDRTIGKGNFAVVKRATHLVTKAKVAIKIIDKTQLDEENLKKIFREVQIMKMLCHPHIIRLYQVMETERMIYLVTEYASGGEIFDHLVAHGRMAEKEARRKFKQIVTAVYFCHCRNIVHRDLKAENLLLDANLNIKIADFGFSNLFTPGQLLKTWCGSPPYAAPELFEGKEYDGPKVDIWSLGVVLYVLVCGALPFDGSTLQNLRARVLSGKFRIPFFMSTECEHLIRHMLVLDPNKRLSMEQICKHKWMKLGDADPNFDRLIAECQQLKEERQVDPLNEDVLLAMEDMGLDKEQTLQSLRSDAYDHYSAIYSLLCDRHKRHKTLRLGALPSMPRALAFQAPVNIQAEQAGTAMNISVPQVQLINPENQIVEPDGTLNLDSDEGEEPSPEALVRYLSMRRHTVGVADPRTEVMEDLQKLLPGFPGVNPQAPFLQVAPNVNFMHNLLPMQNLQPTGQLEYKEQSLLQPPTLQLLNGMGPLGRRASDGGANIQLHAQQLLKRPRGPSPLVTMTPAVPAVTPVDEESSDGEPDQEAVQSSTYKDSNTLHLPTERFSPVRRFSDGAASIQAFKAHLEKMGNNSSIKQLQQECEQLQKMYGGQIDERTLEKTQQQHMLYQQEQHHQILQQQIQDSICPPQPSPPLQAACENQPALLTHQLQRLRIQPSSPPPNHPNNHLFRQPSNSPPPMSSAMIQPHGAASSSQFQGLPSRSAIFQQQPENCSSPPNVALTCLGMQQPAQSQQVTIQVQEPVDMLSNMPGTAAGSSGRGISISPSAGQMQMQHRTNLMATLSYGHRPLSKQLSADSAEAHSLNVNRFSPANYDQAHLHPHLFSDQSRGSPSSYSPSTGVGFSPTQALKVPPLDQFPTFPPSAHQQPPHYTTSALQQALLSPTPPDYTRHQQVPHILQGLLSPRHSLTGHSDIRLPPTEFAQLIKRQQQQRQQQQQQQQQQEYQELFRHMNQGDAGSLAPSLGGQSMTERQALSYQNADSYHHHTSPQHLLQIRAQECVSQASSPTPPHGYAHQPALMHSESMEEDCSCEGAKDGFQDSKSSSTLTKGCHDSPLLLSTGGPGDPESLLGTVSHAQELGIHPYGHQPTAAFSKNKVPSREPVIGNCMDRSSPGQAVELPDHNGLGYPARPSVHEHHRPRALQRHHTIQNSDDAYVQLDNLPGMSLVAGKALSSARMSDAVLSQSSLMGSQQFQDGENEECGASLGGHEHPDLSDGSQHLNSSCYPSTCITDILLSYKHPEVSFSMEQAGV
The read-out pIC50 is expressed as -log10 of concentration in moles per litre.

Solved cases (2 shown):
Recorded pIC50 for Cc1ccc(Oc2cnc3c(-c4ccc(C(C)O)c(-n5nc(C#N)cc5C)c4)cnn3c2)nn1 (stereo not drawn) with SIK3 (Homo sapiens (Human)), please?
7.92

Recorded pIC50 for Cc1cc(C(F)F)nn1-c1cc(-n2cnc3cc(Nc4cccnn4)cnc32)ccc1C(C)O (stereo not drawn) with SIK3 (Homo sapiens (Human)), please?
7.57

Attention now turns to another entry.
Recorded pIC50 for `Cc1cc(C(=O)N(C)C)c(Nc2cnc3c(c2)ncn3-c2ccc(C#N)c(-n3nc(OC(F)F)cc3C)c2)nn1` with SIK3 (Homo sapiens (Human)), please?
6.44
